Could you please report measured CC50 at 48 h for the items listed next?
- protocol: Cytotoxicity against HEK293T cells incubated for 48 hrs by MTT assay
- Format: cell-based, HEK-293T
- conditionInfo: human
State just the number; it will be interpreted in µM.

Any idea what its CC50 at 48 h is? The molecule is NS(=O)(=O)c1ccc(N2N=C(c3cccc(Br)c3)CC2c2ccc3ccccc3c2)cc1 (configuration not stated)
47

Any idea what its CC50 at 48 h is? The molecule is Cc1ccc(-c2cc(C(F)(F)F)nn2-c2ccc(S(N)(=O)=O)cc2)cc1
54.4

Any idea what its CC50 at 48 h is? The molecule is COc1cccc(C2=NN(c3ccc(S(N)(=O)=O)cc3)C(c3ccc4ccccc4c3)C2)c1 (configuration not stated)
49.4

Any idea what its CC50 at 48 h is? The molecule is NS(=O)(=O)c1ccc(N2N=C(c3cccc(I)c3)CC2c2ccc3ccccc3c2)cc1 (configuration not stated)
55.9

Any idea what its CC50 at 48 h is? The molecule is NS(=O)(=O)c1ccc(N2N=C(c3cccc(I)c3)CC2c2cccc3ccccc23)cc1 (configuration not stated)
46.9

Any idea what its CC50 at 48 h is? The molecule is Cc1ccc(C2=NN(c3ccc(S(N)(=O)=O)cc3)C(c3cccc4ccccc34)C2)cc1 (configuration not stated)
51.3

Any idea what its CC50 at 48 h is? The molecule is NS(=O)(=O)c1ccc(N2N=C(c3ccccc3Cl)CC2c2ccc3ccccc3c2)cc1 (configuration not stated)
49.9

Every entry's value here was drawn from ChEMBL document CHEMBL3621140.
